Ki values, listed per item
molecular target: human 5HT7 receptors (Homo sapiens, UniProt P34969); construct: expressed in transfected cells; host or cells: Chinese hamster ovary cells (membranes); experiment: h5-HT7 receptor radioligand binding ([3H]5-CT); conditions: pKi reported on a scale of 1 through 5; read-out: 5HT7 (pKi) (converted)
Sequence (P34969 whole entry): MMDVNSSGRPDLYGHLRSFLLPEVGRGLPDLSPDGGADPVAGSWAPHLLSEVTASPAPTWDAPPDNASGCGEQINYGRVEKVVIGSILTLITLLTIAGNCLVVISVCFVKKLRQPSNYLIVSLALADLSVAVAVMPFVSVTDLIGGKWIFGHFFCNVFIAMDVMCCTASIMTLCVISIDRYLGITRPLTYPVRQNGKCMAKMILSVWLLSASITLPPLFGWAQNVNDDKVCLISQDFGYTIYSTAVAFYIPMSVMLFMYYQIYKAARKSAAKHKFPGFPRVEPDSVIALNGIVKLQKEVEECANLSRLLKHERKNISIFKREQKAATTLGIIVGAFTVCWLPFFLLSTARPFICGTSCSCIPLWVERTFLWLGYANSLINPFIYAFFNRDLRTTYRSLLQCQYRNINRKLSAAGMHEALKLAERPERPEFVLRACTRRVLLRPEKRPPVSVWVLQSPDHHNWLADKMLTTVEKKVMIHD

Consider the reported Ki for these compounds:
compound	measured-result
COc1ccc(NC(=O)C[C@H]2CN(C3=Nc4cc(Cl)ccc4Oc4ccccc43)CCN2)cn1	1580 to 3890 nM
O=C(C[C@H]1CN(C2=Nc3cc(Cl)ccc3Oc3ccccc32)CCN1)OC1CCOCC1	1580 to 3890 nM

### Prompt Which Ki value belongs to O=C(C[C@H]1CN(C2=Nc3cc(Cl)ccc3Oc3ccccc32)CCN1)NC[C@@H]1CCCO1 ?
### Response 631 to 1550 nM
